# unfolding enthalpy (van 't Hoff) annotations
B1: High mobility group protein B1, P63159 (parent)
chain: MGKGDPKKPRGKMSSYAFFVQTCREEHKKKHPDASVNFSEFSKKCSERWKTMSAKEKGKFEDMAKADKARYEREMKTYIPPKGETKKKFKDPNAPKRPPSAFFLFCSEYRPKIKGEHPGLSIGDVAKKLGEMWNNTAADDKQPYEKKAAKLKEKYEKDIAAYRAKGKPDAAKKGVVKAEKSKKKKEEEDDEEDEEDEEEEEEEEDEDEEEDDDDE

- Variants of: B1
- EXPERIMENTAL_SETUP: Rattus norvegicus; pH 7; Thermal; CD; HEPES 10 mM; structure 1HME; whole UniProt chain shown

VARIANT_ANNOTATION	unfolding enthalpy (van 't Hoff)
I122H	33.6 kcal/mol
S121H	28.2 kcal/mol
D140H	33 kcal/mol
D139H	38.3 kcal/mol
